The reported numbers originate from patent US20210355194A1.

# experimental-system: CV S-protein construct 6 trimer TP31001F (SARS-CoV-2, UniProt P0DTC2 14-1208)
# procedure-details: SPR
property-label: Kd (nM)
Kindly provide the numeric value in nM only, without the unit symbol.

variant 6-102 (Fc fusion) VHH: EVQLVESGGGLVQPGGSLRLSCAASGSSFSAYAMGWFRQAPGKEREFVSAIDSEGTTTYADSVKGRFTISADNSKNTAYLQMNSLKPEDTAVYYCAGDYNFWSGFDHWGQGTLVTVSS    0.9
variant 6-41 (Fc fusion) VHH: EVQLVESGGGLVQPGGSLRLSCAASGFTFSTSWMGWFRQAPGKEREFVASINEYGGRNYADSVKGRFTISADNSKNTAYLQMNSLKPEDTAVYYCAGLHYYYDSSGYNPTEYYGMDVWGQGTLVTVSS    1
variant 6-1 (Fc fusion) VHH: EVQLVESGGGLVQPGGSLRLSCAASGRTFGNYNMGWFRQAPGKEREFVATINSLGGTSYADSVKGRFTISADNSKNTAYLQMNSLKPEDTAVYYCARVDYYMDVWGQGTLVTVSS    1.2
variant 5-37 (Fc fusion, VHH-Fc) VHH: EVQLVESGGGLVQPGGSLRLSCAASGSTFSINAMGWFRQAPGKEREFVGGISRSGATTNYADSVKGRFTISADNSKNTAYLQMNSLKPEDTAVYYCAADGVPEYSDYASGPVWGQGTLVTVSS    1.8

Query binder follows.
In: Report Kd for variant 6-36 (Fc fusion) VHH: EVQLVESGGGLVQPGGSLRLSCAASGFDFSVSWMGWFRQAPGKEREFVTAITWSGDSTNYADSVKGRFTISADNSKNTAYLQMNSLKPEDTAVYYCASLLHTGPSGGNYFDYWGQGTLVTVSS please.
Out: 0.8
